- SYSTEM_UNDER_TEST: D(2) dopamine receptor (Rattus norvegicus)
- Sequence (P61169 whole entry): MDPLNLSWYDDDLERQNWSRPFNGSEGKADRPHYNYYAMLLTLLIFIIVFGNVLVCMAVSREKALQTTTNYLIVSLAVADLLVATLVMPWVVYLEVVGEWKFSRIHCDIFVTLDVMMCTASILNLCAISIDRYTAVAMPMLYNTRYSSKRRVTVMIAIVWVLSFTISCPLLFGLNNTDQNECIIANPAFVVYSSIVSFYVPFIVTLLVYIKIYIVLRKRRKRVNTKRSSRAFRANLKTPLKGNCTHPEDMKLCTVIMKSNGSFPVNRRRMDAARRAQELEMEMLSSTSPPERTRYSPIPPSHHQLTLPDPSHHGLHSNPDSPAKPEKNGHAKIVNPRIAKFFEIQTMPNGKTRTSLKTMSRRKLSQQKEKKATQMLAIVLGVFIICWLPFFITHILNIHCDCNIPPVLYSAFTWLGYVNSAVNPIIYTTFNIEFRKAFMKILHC
- METHOD_NOTES: Inhibitory activity against Dopamine receptor D2 in rats using [3H]spiperone as radioligand
pIC50: −log10 of the molar value.
Assign condition met whenever pIC50 does not fall below 5; assign condition not met whenever it does.

CCCN1CCc2cccc(O)c2CC1 condition not met

// query Please check the record CCN1CCc2cccc(OC)c2CC1 and state if its pIC50 is at or above 5.
// result condition met

// query Can you handle COc1cccc2c1CCN(C)CC2 next?
// result condition met

---

- Tested on: Rattus norvegicus
- METHOD_NOTES: The compound was tested in vivo for locomotor activity in rats at 0.2 umol/kg after subcutaneous administration
MEASURED_QUANTITY: Locomotor activity
Please give the numeric answer without any surrounding text.

MOLECULE	Locomotor activity
CCN1CCc2cccc(O)c2CC1	31
COc1cccc2c1CCN(C)CC2	8
CCCN(CCC)C1CCc2cccc(O)c2C1 (centres undefined) [8-OH-DPAT]	66

Please turn your attention to the following entry.
// query Suppose we examine the molecule CN1CCc2cccc(O)c2CC1 ; what Locomotor activity value has been reported?
// result 6
